System: A53T a-syn expressing HEK293 cells
Assay: Cell Titer-Glo cell viability, A53T a-syn expressing cells
Assay type: cell-based, human
Conditions: A53T a-syn; Supp Figure 1A; replicate 2
observedProperty: cell viability effect of peptides
// response body must contain only the number

Sample records with cell viability effect of peptides:
>  <substance>
DEEIERQLKALG [PDpep1.3]

>  <assaySystem>
A53T a-syn expressing HEK293 cells

>  <cell viability effect of peptides>
15800

$$$$
>  <substance>
EIERQLKALG [PDpep1.2]

>  <assaySystem>
A53T a-syn expressing HEK293 cells

>  <cell viability effect of peptides>
15600

$$$$
>  <substance>
IPIQLKA [PDpep1, initial screen hit peptide IPIQLKA]

>  <assaySystem>
A53T a-syn expressing HEK293 cells

>  <cell viability effect of peptides>
14040

$$$$

Could you now consider this next substance?
Value of cell viability effect of peptides reported for the substance IERQLKA [PDpep1.1] is 13400

====

Test system: WT a-syn oligomers
Test: Luciferase PCA of WT a-syn oligomers
Type: cell-based, human
Conditions: WT oligomers, luciferase activity, column 3
observedProperty: Oligomers % (%)
Give the number; % is assumed, so skip it.

Value of Oligomers % reported for the substance IERQLKA [PDpep1.1] is 66.2651

Value of Oligomers % reported for the substance EIERQLKALG [PDpep1.2] is 72.2892

Value of Oligomers % reported for the substance IPIQLKA [PDpep1, initial screen hit peptide IPIQLKA] is 70.9983

Value of Oligomers % reported for the substance DEEIERQLKALG [PDpep1.3] is 73.1497
